# protocol.description: chemical genetic growth profiling, strain panel (AID 1159580);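 further: tested at 20 µM; growth read once vehicle control cultures reached saturation at 30 °C; 1 = growth at the plate median or of vehicle wells; lower values mean less growth of the strain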
# condition.context: S. cerevisiae deletion strains, growth OD, locus YGR078C, strain PAC10, stronger effect = lower value
Hit rate of the full screen: of about 5,500 compounds, about 2,000 (36%) were called active. Another 18% or so got no clear call; they are omitted. The list shows a part of the results.
Label T when normalized growth is strictly below 1; otherwise label F.

Before answering, review these 2 worked examples.
>  <compound>
O=C1c2ccccc2C(=O)C1c1ccccc1

>  <discrete.label>
T

$$$$
>  <compound>
CC(C)(C)C1=NN(c2ccccc2)C(=O)C1

>  <discrete.label>
T

$$$$

Now take the following compound into account.
Input line: Is normalized growth of COc1ccc(CCN(C)CCCC(C#N)(c2cc(OC)c(OC)c(OC)c2)C(C)C)cc1OC (configuration not stated) strictly below 1?
Output line: F

* * *

Items are presented alongside their recorded normalized growth.
# protocol.description: chemical genetic growth profiling, strain panel (AID 1159580)
# condition.context: S. cerevisiae deletion strains, growth OD, locus YGL248W, strain PDE1, stronger effect = lower value
The campaign covered roughly 5,500 compounds. About 2,000 (36%) were called active. Inconclusive results (about 18%) are left out. Some of the results follow.
// no unit string in output, number only

The following compounds have reported results that may help.
>  <compound>
NCC1OC(OC2C(CO)OC(OC3C(O)C(N)CC(N)C3OC3OC(CO)C(O)CC3N)C2O)C(N)C(O)C1OC1OC(CO)C(O)C(O)C1O (stereo unspecified)

>  <normalized growth>
0.996

$$$$
>  <compound>
CCC1(CC)C(=O)C=CNC1=O

>  <normalized growth>
0.987

$$$$
>  <compound>
Cc1cc(=O)n(-c2ccccc2)n1C

>  <normalized growth>
0.999

$$$$
>  <compound>
CC[C@H]1CN2CCc3cc(OC)c(OC)cc3C2C[C@@H]1CC1NCCc2cc(OC)c(OC)cc21 (stereo partly specified)

>  <normalized growth>
1.02

$$$$
>  <compound>
COc1ccc2c(c1)[C@]13CCCC[C@H]1[C@H](C2)N(C)CC3

>  <normalized growth>
0.995

$$$$
>  <compound>
Cc1cc(C(C)(C)C)cc(C)c1CC1=NCCN1

>  <normalized growth>
1

$$$$

Input line: # return recorded normalized growth for entry CCCc1nc2c(C)cc(-c3nc4ccccc4n3C)cc2n1Cc1ccc(-c2ccccc2C(=O)O)cc1
Output line: 0.994

Input line: Indicate its recorded normalized growth; the compound in question is CC(=O)O[C@H]1CC[C@]2(C)C3CC[C@@]4(C)C(CC5O[C@@]6(CCC(C)CO6)[C@@H](C)C54)C3CC[C@H]2C1 (stereo partly specified)
Output line: 0.984

* * *

# protocol.description: chemical genetic growth profiling, strain panel (AID 1159580);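 further: tested at 20 µM; growth read once vehicle control cultures reached saturation at 30 °C; 1 = growth at the plate median or of vehicle wells; lower values mean less growth of the strain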
# condition.context: S. cerevisiae deletion strains, growth OD, locus YKR001C, strain vps1
In all, about 5,500 compounds went through this assay and about 2,000 (36%) were called active. About 18% were inconclusive and are not listed. Cut-off read from the data, not from the text of the source: active = normalized growth mostly below about 0.91 (no sharp cut-off); inconclusive = no clear call, values can overlap the other calls; inactive = mostly above about 0.92. This is one part of the list.
Would you mind answering with one of these outcomes? active, inactive

>  <compound>
COc1c2occc2c(OC)c2c(=O)cc(C)oc12

>  <discrete.label>
inactive

$$$$

Input line: Tell me the recorded outcome of this test for CC[C@H]1OC(=O)[C@H](C)[C@@H](O[C@H]2C[C@@](C)(OC)[C@@H](O)[C@H](C)O2)[C@H](C)[C@@H](O[C@@H]2O[C@H](C)C[C@H](N(C)C)[C@H]2O)[C@](C)(O)C[C@@H](C)[C@@H]2N[C@@H](COCCOC)O[C@H]([C@H]2C)[C@]1(C)O .
Output line: inactive

Input line: Record lookup: outcome of this test for COc1cnc(NS(=O)(=O)c2ccc(N)cc2)nc1 ?
Output line: inactive

Input line: Status in this test for CC(=O)OCC1=C(C(=O)O)N2C(=O)[C@@H](NC(=O)CCCC(N)C(=O)O)C2SC1 (some centres undefined) ?
Output line: inactive

Input line: Check the results log: what was the call for C1CCC(C(CC2CCCCN2)C2CCCCC2)CC1 (centres undefined) ?
Output line: active

Input line: Test call, this compound: CC(=O)CC1CCCCN1 (centres undefined)
Output line: inactive

Input line: // return assay outcome for CC(=O)Oc1cc2c(c(C)c1OC(C)=O)CC1OC13C2(C)CCC1(C)C2CC(C)(C(=O)O)CCC2(C)CCC13C (centres undefined)
Output line: inactive

Input line: # outcome recorded in this test, key = O=C(CCBr)N1CCN(C(=O)CCBr)CC1
Output line: inactive

* * *

# protocol.description: chemical genetic growth profiling, strain panel (AID 1159580);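 further: tested at 20 µM; growth read once vehicle control cultures reached saturation at 30 °C; 1 = growth at the plate median or of vehicle wells; lower values mean less growth of the strain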
# condition.context: S. cerevisiae deletion strains, growth OD, locus YHR094C, strain hxt1, stronger effect = lower value
Screen size: about 5,500 compounds; about 2,000 (36%) were called active. Another 18% or so got no clear call; they are omitted. Some of the results follow.
value.kind: normalized growth
Give only the figure.

Solved cases below.
>  <compound>
COc1cc2c(cc1OC)-c1c(oc3c4c(ccc3c1=O)OC(C(C)C)C4)CO2 (stereo not drawn)

>  <normalized growth>
0.979

$$$$
>  <compound>
NC[C@H]1O[C@H](O[C@H]2[C@H](O)[C@@H](O[C@H]3O[C@H](CO)[C@@H](O)[C@H](N)[C@H]3O)[C@H](N)C[C@@H]2N)[C@H](N)C[C@@H]1O

>  <normalized growth>
1.02

$$$$

Please find the next compound below.
Input line: Supply recorded normalized growth for CN[C@@H]1[C@@H](O[C@H]2O[C@H](CO)[C@@H](N)[C@H](O)[C@H]2O)O[C@H]2C[C@@H](N)[C@H](O[C@H]3[C@H](O)[C@@H](O)[C@H](N)C[C@@H]3N)O[C@@H]2[C@@H]1O here.
Output line: 1.01

* * *

# protocol.description: chemical genetic growth profiling, strain panel (AID 1159580);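 further: tested at 20 µM; growth read once vehicle control cultures reached saturation at 30 °C; 1 = growth at the plate median or of vehicle wells; lower values mean less growth of the strain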
# condition.context: S. cerevisiae deletion strains, growth OD, locus YCR088W, strain abp1
About 2,000 (36%) of roughly 5,500 compounds were called active. Not shown: some 18% with an inconclusive outcome. Rule as the data show it: active = normalized growth mostly below about 0.91 (no sharp cut-off); inconclusive = no clear call, values can overlap the other calls; inactive = mostly above about 0.92. The list shows a part of the results.
Select the correct class. Options are yes = active, no = inactive and nothing else.

>  <molecule>
CN(C)CCc1c[nH]c2ccc(CS(=O)(=O)N3CCCC3)cc12

>  <discrete.label>
no

$$$$
>  <molecule>
O=C(O)c1cc(=O)c2cccc(O)c2[nH]1

>  <discrete.label>
no

$$$$
>  <molecule>
CN1CCN(CCCN2c3ccccc3Sc3ccc(C(F)(F)F)cc32)CC1

>  <discrete.label>
yes

$$$$
>  <molecule>
C#CC1(O)CCC2C3CCC4=CC(=O)CCC4(C)C3CCC21C (stereo not drawn)

>  <discrete.label>
no

$$$$
>  <molecule>
CCOC([O-])=Nc1c[n+](N2CCOCC2)no1

>  <discrete.label>
no

$$$$
>  <molecule>
CNS(=O)(=O)c1ccc(NC(=O)c2ccccc2C(=O)O)cc1

>  <discrete.label>
no

$$$$
>  <molecule>
CN1CCN(CCC=C2c3ccccc3Sc3ccc(S(=O)(=O)N(C)C)cc32)CC1

>  <discrete.label>
no

$$$$
>  <molecule>
C[C@]12CCC(=O)C=C1CCC1C2C(=O)C[C@@]2(C)C1CC[C@]2(O)C(=O)CO (stereo partly drawn)

>  <discrete.label>
no

$$$$
>  <molecule>
CC(=O)NS(=O)(=O)c1ccc(NC(=O)c2ccccc2C(=O)O)cc1

>  <discrete.label>
no

$$$$
>  <molecule>
CC(=O)OCC(=O)[C@@]1(O)CCC2C3CCC4=CC(=O)CC[C@]4(C)C3[C@@H](O)C[C@@]21C (stereo partly drawn)

>  <discrete.label>
no

$$$$

Input line: What classification did C1CCC(C(CC2CCCCN2)C2CCCCC2)CC1 (stereo not drawn) end up with in this test?
Output line: no

Input line: Test call for this molecule, please: CC1=NN(c2ccccc2)C(=O)C1
Output line: no

Input line: Assay outcome for O=C(OC[C@H]1O[C@H](OC(=O)c2cc(O)c(O)c(OC(=O)c3cc(O)c(O)c(O)c3)c2)[C@H](OC(=O)c2cc(O)c(O)c(OC(=O)c3cc(O)c(O)c(O)c3)c2)[C@@H](OC(=O)c2cc(O)c(O)c(OC(=O)c3cc(O)c(O)c(O)c3)c2)[C@@H]1OC(=O)c1cc(O)c(O)c(OC(=O)c2cc(O)c(O)c(O)c2)c1)c1cc(O)c(O)c(OC(=O)c2cc(O)c(O)c(O)c2)c1 : what was it?
Output line: yes

Input line: Please let me know the test result on file for OCCN1CCN(CCCN2c3ccccc3Sc3ccc(C(F)(F)F)cc32)CC1 .
Output line: no

Input line: For CC(=O)OC[C@H]1O[C@@H](Oc2cc(OC(C)=O)c3c(=O)cc(-c4ccc(OC(C)=O)cc4)oc3c2)[C@H](OC(C)=O)[C@@H](OC(C)=O)[C@@H]1OC(C)=O , which call appears in the assay record?
Output line: no
